IC50 values by entry
Biological target: Calpain-1 catalytic subunit (Homo sapiens)
Assay: Inhibitory activity evaluated against recombinant human calpain 1
Residues, ends and D or L forms follow the SMILES beside them. *: point of attachment. Cbz = O=C(OCc1ccccc1)*
Use nM as the unit, but write only the number.

CC(C)C[C@@H](C=O)NC(=O)[C@H](Cc1ccccc1)NC(=O)[C@H](CC(C)C)NC(=O)OCc1ccccc1 (Cbz-Leu-Phe-Leu-aldehyde)
68
CC(C)C[C@@H](C=O)NC(=O)[C@H](CC(C)C)NC(=O)[C@H](C)NC(=O)OCc1ccccc1 (Cbz-Ala-Leu-Leu-aldehyde)
5

IN: Checklist item: IC50 tested on Calpain-1 catalytic subunit (Homo sapiens), entry CC(C)C[C@@H](C=O)NC(=O)[C@H](Cc1c[nH]c2ccccc12)NC(=O)OCc1ccccc1 (Cbz-Trp-Leu-aldehyde) , value?
OUT: 120

----------
Biological target: Calpain-1 catalytic subunit (Homo sapiens)
Sequence (P07384 whole entry): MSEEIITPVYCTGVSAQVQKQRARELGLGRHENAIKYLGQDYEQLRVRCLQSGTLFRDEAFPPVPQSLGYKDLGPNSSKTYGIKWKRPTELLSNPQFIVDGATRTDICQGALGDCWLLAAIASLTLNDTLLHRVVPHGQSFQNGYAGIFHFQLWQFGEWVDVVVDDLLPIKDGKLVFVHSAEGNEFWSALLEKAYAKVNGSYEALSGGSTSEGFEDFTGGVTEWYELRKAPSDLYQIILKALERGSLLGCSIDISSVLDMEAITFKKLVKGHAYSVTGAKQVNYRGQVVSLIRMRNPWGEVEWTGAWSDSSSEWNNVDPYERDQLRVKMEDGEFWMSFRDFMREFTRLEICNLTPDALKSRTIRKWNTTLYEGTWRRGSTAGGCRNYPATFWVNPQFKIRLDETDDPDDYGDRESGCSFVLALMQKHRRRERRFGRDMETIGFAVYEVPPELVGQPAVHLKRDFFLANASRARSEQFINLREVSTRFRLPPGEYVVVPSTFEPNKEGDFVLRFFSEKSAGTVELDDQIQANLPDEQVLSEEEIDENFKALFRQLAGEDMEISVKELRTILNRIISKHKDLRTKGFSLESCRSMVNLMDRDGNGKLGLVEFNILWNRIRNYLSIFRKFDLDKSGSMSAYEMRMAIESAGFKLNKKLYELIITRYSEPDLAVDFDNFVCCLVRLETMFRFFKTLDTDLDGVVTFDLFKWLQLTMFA
Assay: Inhibitory activity evaluated against recombinant human calpain 1
Non-standard residues stand in square brackets, D forms with d. Residues, ends and D or L forms follow the SMILES beside them. *: point of attachment. tBuAla = CC(C)(C)C[C@H](N)C(=O)O; Tic = O=C(O)[C@@H]1Cc2ccccc2CN1; Cha = N[C@@H](CC1CCCCC1)C(=O)O; Cbz = O=C(OCc1ccccc1)*
pIC50 values by entry
pIC50 (log units): -log10 of the concentration in mol/L.

Some molecules with recorded pIC50:
CC(C)C[C@@H](C=O)NC(=O)[C@H](CO)NC(=O)OCc1ccccc1 (Cbz-Ser-Leu-aldehyde)
6.28
CC[C@H](C)[C@H](NC(=O)OCc1ccccc1)C(=O)N[C@H](C=O)CC(C)C (Cbz-Ile-Leu-aldehyde)
7.39
CC(=O)N[C@@H](CC(C)C)C(=O)N[C@H](C=O)CC(C)C
6.89
CC(C)C[C@H](NC(=O)OCc1ccccc1)C(=O)N[C@H](C=O)CC1CCCCC1 (Cbz-Leu-[Cha]-aldehyde)
7.96
CC(C)C[C@@H](C=O)NC(=O)[C@H](CCC(=O)O)NC(=O)[C@H](CC(C)C)NC(=O)OCc1ccccc1 (Cbz-Leu-Glu-Leu-aldehyde)
5.92

IN: Find the recorded pIC50 belonging to CC(C)C[C@@H](C=O)NC(=O)[C@H](CC(C)(C)C)NC(=O)OCc1ccccc1 (Cbz-[tBuAla]-Leu-aldehyde) and report it.
OUT: 6.85

IN: Now consider CC(C)C[C@@H](C=O)NC(=O)[C@H](CC(C)C)NC(=O)[C@@H]1Cc2ccccc2CN1C(=O)OCc1ccccc1 (Cbz-[Tic]-Leu-Leu-aldehyde) and answer again.
OUT: 7.82
